run-description: EBV LMP1-driven NF-kappaB luciferase reporter inhibitors, primary screen, cell-based, luminescence, single point (AID 504558);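 note: 0% = neutral control wells and 100% = reference inhibitor control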
recorded-conditions: LMP1-induced NF-kappaB luciferase reporter cells, at 12.5 µM, active compounds read high
The campaign covered roughly 350,000 compounds. About 2,400 (0.69%) were called active. Many of the other results were omitted from the sample, so actives are more common in it than they were.
readout: inhibition (%)
Number only, in %; omit the unit.

Below, each entry is followed by its recorded inhibition result.
{"compound": "Cn1nccc1C(=O)NC1CCCc2c1cnn2-c1ccccc1F (stereo unspecified)", "reading-unit": "%", "inhibition": 28.4}
{"compound": "c1ccc(CNCc2ccc(CNCc3ccccc3)cc2)cc1", "reading-unit": "%", "inhibition": -5.41}
{"compound": "C[C@H](O)[C@@H]1C(=O)N2CCc3c([nH]c4ccccc34)[C@@H]2C[C@@H]1N(C)C(=O)Nc1ccc(F)cc1", "reading-unit": "%", "inhibition": 3.72}
{"compound": "COc1ccc(OC)c(C(=O)NC2CCCc3c2cnn3-c2cc(C)cc(C)c2)c1 (stereo unspecified)", "reading-unit": "%", "inhibition": -16.3}
{"compound": "COc1ccc(C(=O)NC2CCCc3c2cnn3-c2cccc(C)c2C)c(OC)n1 (stereo unspecified)", "reading-unit": "%", "inhibition": 47.8}

API: the following record is the query input.
Quick one: inhibition for O=C(CSc1ncnc2sccc12)N1CCN(C(=O)c2cccs2)CC1 ?
69.5

----------
run-description: EBV LMP1-driven NF-kappaB luciferase reporter inhibitors, primary screen, cell-based, luminescence, single point (AID 504558);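 note: 0% = neutral control wells and 100% = reference inhibitor control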
recorded-conditions: LMP1-induced NF-kappaB luciferase reporter cells, at 12.5 µM
In all, about 350,000 compounds went through this assay and about 2,400 (0.69%) were called active. Cut-off read from the data, not from the text of the source: active = inhibition above about 41%; inconclusive = no clear call, values can overlap the other calls; inactive = below that. The sample as a whole holds a higher share of actives than the screen did.
The categories you may choose from are 1.0 (active), 0.0 (inactive)

Solved entries (count: 3):
{"compound": "C[C@H]1CN([C@@H](C)CO)C(=O)c2cc(C3=CCCCC3)cnc2O[C@@H]1CN(C)C(=O)Cc1ccccc1", "discrete-label": 0.0}
{"compound": "Cc1onc(-c2ccccc2)c1-c1nnc(COC(=O)c2ccc(N(C)C)cc2)o1", "discrete-label": 0.0}
{"compound": "COc1ccc(S(=O)(=O)N2CCN(C(=S)NCC3CCCO3)CC2)cc1OC (stereo not drawn)", "discrete-label": 1.0}

In this assay, the call recorded for COC(=O)[C@H]1C[C@H](OC(=O)NCc2ccccc2)[C@@]2(O)CN(S(=O)(=O)c3ccc(C)cc3)CC2[C@H]1C(=O)OC (stereo partly drawn) was what?
0.0

Record: O=C(CN1C(=O)c2ccccc2S1(=O)=O)N1CCc2ccccc21
1.0

Record: c1ccc(C(=NNc2nc3ccccc3s2)c2ccccn2)cc1
1.0

Record: CC(Sc1ccc(S(=O)(=O)N2CCN(C)CC2)cn1)C(=O)NC1CCCC(C)C1C (stereo not drawn)
0.0

Record: O=C(CSCc1ccccc1)N1CCc2ccccc21
0.0

----------
Reported inhibition values for the following molecules.
run-description: EBV LMP1-driven NF-kappaB luciferase reporter inhibitors, primary screen, cell-based, luminescence, single point (AID 504558);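 note: 0% = neutral control wells and 100% = reference inhibitor control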
recorded-conditions: LMP1-induced NF-kappaB luciferase reporter cells, at 12.5 µM, active compounds read high
Out of some 350,000 compounds screened, about 2,400 (0.69%) were called active. The sample as a whole holds a higher share of actives than the screen did.
Number only, in %; omit the unit.

{"molecule": "CCc1ccc(CN(C)C(=O)CCc2nnc(-c3ccc(-c4ccccc4)cc3)o2)nc1", "reading-unit": "%", "inhibition": 5.34}
{"molecule": "Cc1ccccc1NC(=O)Cc1nc(COC(=O)CNC(=O)c2ccc(Cl)cc2Cl)cs1", "reading-unit": "%", "inhibition": -5.79}
{"molecule": "COc1cccc(NC(=O)N(C)C[C@@H]2Oc3ncc(Br)cc3C(=O)N([C@@H](C)CO)C[C@H]2C)c1", "reading-unit": "%", "inhibition": 1.17}

API: the following record is the query input.
Quick one: inhibition for CCC(C)Cn1c(O)cc2nn(-c3nc4ccccc4s3)c(=O)c-2c1C (centres undefined) ?
51.8
